Target: L. donovani NMT (Leishmania donovani)
Sequence (D0AB09 entry or part of it): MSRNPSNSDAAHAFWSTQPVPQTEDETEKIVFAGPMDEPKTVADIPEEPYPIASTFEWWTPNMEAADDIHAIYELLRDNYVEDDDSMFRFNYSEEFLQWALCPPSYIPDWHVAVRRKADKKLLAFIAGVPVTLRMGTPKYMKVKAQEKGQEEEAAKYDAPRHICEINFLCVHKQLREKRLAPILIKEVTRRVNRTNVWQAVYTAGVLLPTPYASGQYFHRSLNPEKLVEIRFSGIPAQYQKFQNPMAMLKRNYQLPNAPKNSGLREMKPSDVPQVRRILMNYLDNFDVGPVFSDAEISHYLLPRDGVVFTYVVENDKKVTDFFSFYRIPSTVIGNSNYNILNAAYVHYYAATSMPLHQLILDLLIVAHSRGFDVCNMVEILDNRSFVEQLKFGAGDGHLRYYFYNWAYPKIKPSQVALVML
Test: biochemical
Settings: Table 1; mean of 3 separate experiments; top concentration 80 µM; read-out: Ldon IC50
Description: Recombinant P. falciparum (Swiss-Prot Q81LW6) and L. donovani NMTs (EMBL accession number FN555136) were produced at the University of York, using established protocols. […] The reaction was initiated by adding 10 µL of the substrate mixture to each well containing the pre-incubated enzyme/compound mixture, and allowed to proceed at RT for 80 min. […] Radioactive counts were measured with an integration time of 300 sec per plate using the Leadseeker Generation 4 plate reader (GE Healthcare). […]
Listed here: items and their measured IC50.

- COMPOUND: "c1cncc(CCNCc2cccc(-c3cccc(CN4CCc5ncsc5C4)c3)c2)c1"
  IC50 / µM: 0.158
- COMPOUND: "CNCC(=O)N1CC[C@@H](NC(=O)c2ccccc2C(F)(F)F)C1"
  IC50 / µM: 38.7
- COMPOUND: "NC(CC(=O)N1CC(CO)C(c2ccc(Cl)cc2)C1)Cc1ccc(Cl)cc1 (stereo not shown)"
  IC50 / µM: 0.093
- COMPOUND: "Cc1cnc(CNC(=O)C2CN(c3nc(NCCN(C)C)ncc3Cl)C2)cn1"
  IC50 / µM: 72
